# target desc: T1, human PD-1 expressed on cells (human, UniProt Q15116 25-288)
# T1 construct: whole, on cells; also called CHO-K1/huPD-1; CHO-K1-hPD-1 cells
# T1 sequence (Q15116 25-288): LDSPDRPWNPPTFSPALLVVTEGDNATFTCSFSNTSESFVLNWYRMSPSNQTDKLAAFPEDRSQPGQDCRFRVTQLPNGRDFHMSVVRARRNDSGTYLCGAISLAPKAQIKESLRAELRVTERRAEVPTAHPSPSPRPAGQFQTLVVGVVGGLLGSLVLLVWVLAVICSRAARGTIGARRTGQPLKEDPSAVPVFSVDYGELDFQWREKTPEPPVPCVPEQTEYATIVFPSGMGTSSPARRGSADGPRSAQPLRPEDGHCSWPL
# assay summary: cell RBA FACS; competitor PD-L2/Fc
Property: IC50; scope: individual binders
Give a bare numeral; the unit nM is implied.

Reference set, count: 8
HumAb713-13 (antibody, human IgG1, kappa, L234A L235A, V domains shown, humanized mAb713) VH: EVQLVESGGGLVQPGGSLRLSCAASGFTFSDYGMHWVRQAPGKGLEWVSYISSGSYTIYYADTVKGRFTISRDNAKNSLYLQMNSLRDEDTAVYYCARRGGSSHVNVMDYWGQGTTVTVSS VL: DIQMTQSPSSLSASVGDRVTITCKASDHINNWLAWYQQKPGKAPKLLISGATSLETGVPSRFSGSGSGKDYTFTISSLQPEDIATYYCQQYWSPPYTFGGGTKVEIKR :: 2.13
HumAb713-4 (antibody, human IgG1, kappa, L234A L235A, V domains shown, humanized mAb713) VH: EVQLVESGGGLVQPGGSLRLSCAASGFTSSDYGMHWVRQAPGKGLEWVAYISSGSYTIYYADTVKGRFTISRDNAKNSLYLQMNSLRDEDTAVYYCAKRGGSSHVNVMDYWGQGTTVTVSS VL: DIQMTQSPSSLSASVGDRVTITCKASDHINNWLAWYQQKPGKAPKLLIYGATSLETGVPSRFSGSGSGTDFTFTISSLQPEDIATYYCQQYWSPPYTFGGGTKVEIKR :: 2.24
HumAb713-9 (antibody, human IgG1, kappa, L234A L235A, V domains shown, humanized mAb713) VH: EVQLVESGGGLVQPGGSLRLSCAASGFTFSDYGMHWVRQAPGKGLEWVSYISSGSYTIYYADTVKGRFTISRDNAKNSLYLQMNSLRDEDTAVYYCARRGGSSHVNVMDYWGQGTTVTVSS VL: DIQMTQSPSSLSASVGDRVTITCKASDHINNWLAWYQQKPGKAPKLLISGATSLETGVPSRFSGSGSGTDYTFTISSLQPEDIATYYCQQYWSPPYTFGGGTKVEIKR :: 2
mAb713c (antibody, V domains shown, also called mAb73c) VH: EVKLVESGGGLVKPGGSLELSCAASGFTSSDYGMHWVRQAPEKGLEWVAYISSGSYTIYYADTVKGRFTISRDNAKNTLFLQMTSLRSEDTAMYYCAKRGGSSHVNVMDYWGQGTSVTVSS VL: DIQMTQSSSYLSVSLGGRVTITCKASDHINNWLAWYQQKPGNAPRLLISGATSLETGVPSRFSGSGSGKDYTLSITSLQTEDVATYYCQQYWSPPYTFGGGTKLEIK :: 2.2
HumAb713-11 (antibody, human IgG1, kappa, L234A L235A, V domains shown, humanized mAb713) VH: EVQLVESGGGLVQPGGSLRLSCAASGFTSSDYGMHWVRQAPGKGLEWVSYISSGSYTIYYADTVKGRFTISRDNAKNSLYLQMNSLRDEDTAVYYCAKRGGSSHVNVMDYWGQGTTVTVSS VL: DIQMTQSPSSLSASVGDRVTITCKASDHINNWLAWYQQKPGKAPKLLISGATSLETGVPSRFSGSGSGTDYTFTISSLQPEDIATYYCQQYWSPPYTFGGGTKVEIKR :: 0.97
HumAb713-10 (antibody, human IgG1, kappa, L234A L235A, V domains shown, humanized mAb713) VH: EVQLVESGGGLVQPGGSLRLSCAASGFTFSDYGMHWVRQAPGKGLEWVSYISSGSYTIYYADTVKGRFTISRDNAKNSLYLQMNSLRDEDTAVYYCAKRGGSSHVNVMDYWGQGTTVTVSS VL: DIQMTQSPSSLSASVGDRVTITCKASDHINNWLAWYQQKPGKAPKLLISGATSLETGVPSRFSGSGSGTDYTFTISSLQPEDIATYYCQQYWSPPYTFGGGTKVEIKR :: 1.23
HumAb713-1 (antibody, human IgG1, kappa, L234A L235A, V domains shown, humanized mAb713) VH: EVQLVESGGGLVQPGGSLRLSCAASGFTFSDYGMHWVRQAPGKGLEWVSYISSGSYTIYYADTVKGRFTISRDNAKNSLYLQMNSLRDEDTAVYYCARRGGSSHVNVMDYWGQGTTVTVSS VL: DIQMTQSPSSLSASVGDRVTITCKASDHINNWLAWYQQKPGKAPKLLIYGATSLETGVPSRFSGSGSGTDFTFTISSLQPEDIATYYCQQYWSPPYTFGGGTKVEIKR :: 1.2
HumAb713-15 (antibody, human IgG1, kappa, L234A L235A, V domains shown, humanized mAb713) VH: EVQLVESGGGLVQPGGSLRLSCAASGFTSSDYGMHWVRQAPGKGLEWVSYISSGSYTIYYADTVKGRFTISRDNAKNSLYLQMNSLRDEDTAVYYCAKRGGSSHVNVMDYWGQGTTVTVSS VL: DIQMTQSPSSLSASVGDRVTITCKASDHINNWLAWYQQKPGKAPKLLISGATSLETGVPSRFSGSGSGKDYTFTISSLQPEDIATYYCQQYWSPPYTFGGGTKVEIKR :: 1.65

# next binder below
QUERY: State the recorded IC50 for this entry: HumAb713-7 (antibody, human IgG1, kappa, L234A L235A, V domains shown, humanized mAb713) VH: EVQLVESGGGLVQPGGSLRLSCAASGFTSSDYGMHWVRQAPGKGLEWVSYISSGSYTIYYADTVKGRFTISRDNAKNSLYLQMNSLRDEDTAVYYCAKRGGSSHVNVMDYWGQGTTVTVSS VL: DIQMTQSPSSLSASVGDRVTITCKASDHINNWLAWYQQKPGKAPKLLIYGATSLETGVPSRFSGSGSGTDYTFTISSLQPEDIATYYCQQYWSPPYTFGGGTKVEIKR
RESULT: 1.4
